# target.entity: T1, human TREM2 (triggering receptor expressed on myeloid cells 2) (human) (UniProt Q9NZC2)
# T1 sequence (looked up): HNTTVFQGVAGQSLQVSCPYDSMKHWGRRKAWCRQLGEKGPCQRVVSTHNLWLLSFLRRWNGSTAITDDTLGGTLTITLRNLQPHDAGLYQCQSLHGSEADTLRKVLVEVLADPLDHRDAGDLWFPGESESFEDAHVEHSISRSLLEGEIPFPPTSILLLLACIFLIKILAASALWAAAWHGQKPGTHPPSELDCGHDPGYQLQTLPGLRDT
# test.details: 1st screen, 110 nM Ab
metric: Binding Signal (fold over 6E7 parental antibody) (fold)

| binder | numeric.readout |
| --- | --- |
| 6E7 antibody affinity modulation variant V7 (antibody, V domains shown) VH: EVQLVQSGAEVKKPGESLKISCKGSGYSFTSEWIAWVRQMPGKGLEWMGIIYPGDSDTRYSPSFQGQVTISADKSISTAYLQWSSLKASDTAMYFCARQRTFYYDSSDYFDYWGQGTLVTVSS VL: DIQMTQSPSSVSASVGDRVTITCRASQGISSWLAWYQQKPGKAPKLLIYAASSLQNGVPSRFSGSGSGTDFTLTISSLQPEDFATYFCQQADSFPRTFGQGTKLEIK | 0.11 |
| 6E7 antibody affinity modulation variant V71 (antibody, V domains shown) VH: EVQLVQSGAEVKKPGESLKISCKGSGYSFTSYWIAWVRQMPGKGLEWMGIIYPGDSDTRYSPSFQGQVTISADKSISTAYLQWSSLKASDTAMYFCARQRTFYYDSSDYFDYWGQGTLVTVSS VL: DIQMTQSPSSVSASVGDRVTITCRASQGISSWLAWYQQKPGKAPKLLIYAASSLQNGVPSRFSGSGSGTDFTLTISSLQPEDFATYFCQQADSEPRTFGQGTKLEIK | 0.37 |
| 6E7 antibody affinity modulation variant V57 (antibody, V domains shown) VH: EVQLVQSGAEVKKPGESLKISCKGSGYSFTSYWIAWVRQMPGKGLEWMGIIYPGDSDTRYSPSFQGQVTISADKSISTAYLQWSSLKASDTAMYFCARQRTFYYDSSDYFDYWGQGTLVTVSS VL: DIQMTQSPSSVSASVGDRVTITCAASQGISSWLAWYQQKPGKAPKLLIYAASSLQNGVPSRFSGSGSGTDFTLTISSLQPEDFATYFCQQADSFPRTFGQGTKLEIK | 0.84 |

The measured values listed here are drawn from patent US20250019437A1.
